Test system: IGROV1 ovarian
procedure text: NCI tumour cell line growth inhibition, 48 h
Attribute: TGI
Give a bare numeral; the unit µM is implied.

>  <input smiles>
Nc1ncc(-c2cnn(C3CCNCC3)c2)cc1-c1nc2cc(Cl)ccc2o1

>  <TGI / µM>
2.43

$$$$

Below: the item to evaluate.
Give the observed TGI of `CC/C=C\C[C@H]1CC=C2C(=O)C=C[C@@H]2CC=CCCCC(=O)O[C@@H](CCCCC)CC=C2C(=O)C=C[C@@H]2CC=CCCCC(=O)O[C@@H](CCCCC)CC=C2C(=O)C=C[C@@H]2CC=CCCCC(=O)O[C@@H](CCCCC)CC=C2C(=O)C=C[C@@H]2CC=CCCCC(=O)O1` for IGROV1 ovarian.
7.81

====

Attribute: TGI
Tested on: RPMI-8226 leukemia
procedure text: NCI tumour cell line growth inhibition, 48 h

Record excerpt, results attached:
>  <molecule>
O=C(Nc1ccc(C(F)(F)F)cc1[N+](=O)[O-])C(=O)C1NC(=S)NC1=O (stereo not given)

>  <value reported>
> 100 µM

$$$$
>  <molecule>
CC(=O)C1C(c2ccccc2)C2(C)OC(=O)C(C#N)C12C (stereo not given)

>  <value reported>
> 100 µM

$$$$
>  <molecule>
CCOc1cc(C(C)(C)C)ccc1C1=N[C@H](c2ccc(Cl)cc2)[C@H](c2ccc(Cl)cc2)N1C(=O)N1CCN(CC#Cc2cccc3c2CN([C@@H]2CCC(=O)NC2=O)C3=O)CC1

>  <value reported>
> 100 µM

$$$$
>  <molecule>
O=C(c1ccccc1)c1ccc2n[se]nc2c1

>  <value reported>
> 100 µM

$$$$
>  <molecule>
CCCOC(=O)N[C@H]1CCc2c(Cl)c(OC)c(OC)c(OC)c2-c2ccc(SC)c(=O)cc21

>  <value reported>
7.73 µM

$$$$
>  <molecule>
O=[N+]([O-])c1ccc(CSc2nncc3[nH]cnc23)cc1

>  <value reported>
> 100 µM

$$$$
>  <molecule>
CC(=O)Oc1c(C)c(-c2ccccc2)c(C)c(-c2ccccc2)c1C(=S)c1ccccc1

>  <value reported>
> 100 µM

$$$$
>  <molecule>
CC1(c2cccc(C3CC4(CCC3=O)OCCCCO4)c2)OCCO1 (stereo not given)

>  <value reported>
> 100 µM

$$$$
>  <molecule>
S=C(N/N=C/c1ccccn1)N1CCCCC1

>  <value reported>
1.68 µM

$$$$

Below: the item to evaluate.
# return recorded TGI for input `Cn1c(Cl)c(/C=C2/C(=O)Nc3ccccc32)c2ccccc21`
4.6 µM

====

Tested on: EKVX NSCLC
procedure text: NCI tumour cell line growth inhibition, 48 h
Attribute: TGI

Record excerpt, results attached:
>  <compound>
C=CCCON(C(=O)OC(C)(C)C)c1ccccc1

>  <value reported>
> 100 µM

$$$$
>  <compound>
CSc1c(C(=O)Nc2ccccc2)c(N)n(N)c(=O)c1C#N

>  <value reported>
> 100 µM

$$$$
>  <compound>
Nc1n[nH]c2cccc(C#Cc3cccc(NC(=O)c4cccc(C(F)(F)F)c4)c3)c12

>  <value reported>
19.8 µM

$$$$

# return recorded TGI for input COc1ccc2c(c1)CN1C(=N2)CSC1c1cccc(Br)c1 (stereo unspecified)
> 100 µM

# return recorded TGI for input O=C(O)c1c2c(cc3c1CC(Cc1ccccc1)C3=O)CCC2 (stereo unspecified)
> 100 µM

# return recorded TGI for input `NCCCNCCS`
> 100 µM

# return recorded TGI for input `CCCCCCCCCCCC(=O)OCCOCCOCCOCCOCCOC(=O)CCCCCCCCCCC`
> 100 µM

# return recorded TGI for input CCOC1C(Br)Cn2c(=O)c3cc4ccccc4cc3c(=O)n2C1C (stereo unspecified)
> 100 µM

# return recorded TGI for input `O=C1COc2cc(NC(=S)Nc3ccccc3)ccc2N1`
> 100 µM

# return recorded TGI for input `CC(C)(C)c1cc([N+](=O)[O-])cc([N+](=O)[O-])c1O`
> 10 µM

# return recorded TGI for input `COC(=O)[C@@H]1C[C@H]2OC(=O)CC[C@]2(C)O[C@H]1[C@H]1O[C@@](C)(O)CCC[C@H]1C`
> 50 µM
